test: physchem; details: PAMPA
Decide by Papp at 16 h: equal to or exceeding 5 ×10⁻⁶ cm/s means yes, less means no.

{"columns": ["Compound", "Group"],
 "data": [
  ["Cc1ccc2occ(/C=N/c3ccc(Cl)cc3O)c(=O)c2c1", "yes"],
  ["O=c1c(/C=N/c2cccc(Cl)c2O)coc2ccc(Br)cc12", "no"],
  ["CCn1cc(C(=O)O)c(=O)c2cc(F)c(N3CCNC(C)C3)c(F)c21 (stereo not given) [LOMEFLOXACIN]", "no"],
  ["NCCc1ccc(O)c(O)c1 [DOPAMINE]", "no"]
]}

====

# pIC50 values compiled below
Biological target: Amine oxidase [flavin-containing] B (Homo sapiens)
Sequence (P27338 whole entry): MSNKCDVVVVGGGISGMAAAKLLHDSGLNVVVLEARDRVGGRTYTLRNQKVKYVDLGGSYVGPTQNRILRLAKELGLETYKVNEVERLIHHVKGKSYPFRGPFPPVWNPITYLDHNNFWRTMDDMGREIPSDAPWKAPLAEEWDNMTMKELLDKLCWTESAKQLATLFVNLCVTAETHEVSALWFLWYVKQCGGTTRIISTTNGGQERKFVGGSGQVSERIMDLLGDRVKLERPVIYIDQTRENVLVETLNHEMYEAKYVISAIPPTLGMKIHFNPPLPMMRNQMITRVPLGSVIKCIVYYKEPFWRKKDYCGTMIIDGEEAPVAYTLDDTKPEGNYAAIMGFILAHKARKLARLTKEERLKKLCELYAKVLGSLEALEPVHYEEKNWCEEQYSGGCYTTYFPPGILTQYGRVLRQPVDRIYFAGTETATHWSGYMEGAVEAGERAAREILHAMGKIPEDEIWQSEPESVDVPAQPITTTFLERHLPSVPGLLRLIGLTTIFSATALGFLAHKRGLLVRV
Test: biochemical
Description: Inhibition of recombinant human MAO-B expressed in baculovirus infected BTI insect cells using p-tyramine as substrate pretreated for 15 mins followed by substrate addition after 20 mins by Amplex red reagent based fluorimetric method
pIC50: −log10 of the molar value.
Readout label: pIC50

{"columns": ["Smiles entry", "Result value"],
 "data": [
  ["Cc1ccc2occ(/C=N/c3cc([N+](=O)[O-])ccc3O)c(=O)c2c1", 5.79],
  ["Cc1ccc2occ(/C=N/c3cc(Cl)ccc3O)c(=O)c2c1", 6.20],
  ["O=c1c(/C=N/c2cc(F)ccc2O)coc2ccc(Br)cc12", 6.08],
  ["Cc1ccc(/N=C/c2coc3ccccc3c2=O)c(O)c1", 4.84],
  ["Cc1ccc(O)c(/N=C/c2coc3ccc(Br)cc3c2=O)c1", 5.95],
  ["O=c1c(/C=N/c2cc(F)ccc2O)coc2ccccc12", 5.75],
  ["Cc1ccc2occ(/C=N/c3cc(F)ccc3O)c(=O)c2c1", 5.63],
  ["O=c1c(/C=N/c2cc(Cl)ccc2O)coc2ccc(Br)cc12", 5.48],
  ["Cc1ccc2occ(/C=N/c3ccc(Cl)cc3O)c(=O)c2c1", 6.04],
  ["O=c1c(/C=N/c2ccc(F)cc2O)coc2ccc(Br)cc12", 6.12],
  ["O=c1c(/C=N/c2ccc(Cl)cc2O)coc2ccccc12", 5.75]
]}

====

species: Homo sapiens; test: Selectivity index, ratio of IC50 for recombinant human MAO-A expressed in baculovirus infected BTI insect cells to IC50 for recombinant human MAO-B expressed in baculovirus infected BTI insect cells
# Ratio IC50 values compiled below
Readout label: Ratio IC50

{"columns": ["Smiles entry", "Result value"],
 "data": [
  ["O=c1c(/C=N/c2ncccc2O)coc2ccc(Br)cc12", 3.31],
  ["O=c1c(/C=N/c2cc(Cl)ccc2O)coc2ccccc12", 0.11],
  ["Cc1ccc2occ(/C=N/c3cc(Cl)ccc3O)c(=O)c2c1", 3.39],
  ["O=c1c(/C=N/c2ccccc2O)coc2ccccc12", 0.22]
]}
